Can you tell me PBM binding z-score for the items I'm about to list?
- Test system: LXRa:RXRa (NR concentration 270 nM, RXRa partner concentration 90 nM)
- procedure details: PBM binding z-score (relative to random genomic background probes); higher = stronger binding; sequences stand for … in GC…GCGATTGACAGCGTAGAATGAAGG
I only need the number, thanks.

Query: // lookup PBM binding z-score for `CGTCCAAGGTCATAGGAGGTCAGTGACGACAGAT`
Response: 7.6

Query: What value of PBM binding z-score has been recorded for this entry: `CCGACTGGGGCACAAGGTTACCATAAGCCAGCCC`
Response: 1.73

Query: Bench note: what PBM binding z-score did `CGAACTAGGTCAAGGTCAAAGTCGGTTTGTGCCA` show?
Response: 5.52

Query: Need PBM binding z-score of `CGAATTAGGTCAGAACAGGACAGTGAAGGATGAT` , thanks.
Response: 1.31

Query: Fill in the blank: the reported PBM binding z-score of `TCATATAGGTAAATGCAAGGTGAAAGTCCGATCT` is ____.
Response: 1.44

Query: Dear colleague, I am looking for the recorded PBM binding z-score of the following sequence: `AGTACGAGGGCAATGAGTTGATAGCACGGGTGGC`
Response: 0.352

Query: What value of PBM binding z-score has been recorded for this entry: `TCATATAGATAAATGCTAGGTGAAAGTCCGATCT`
Response: 0.813

Query: What does the record list as PBM binding z-score for `CCTACTGGGGCAAGGTTACCATAACGCACAGCCA` ?
Response: 0.654

Query: I have this sequence here, `GGTACAGGGTCAAGGCCAGAGTACGCGTATTGAT` , and I need its recorded PBM binding z-score.
Response: 3.85

Query: Quick one: PBM binding z-score of `TCTTGTAGATCAAAGATTAAGAAAGCCGAAGCCT` ?
Response: 0.499

Query: Form field: reported PBM binding z-score of `TCTTGTAGATCAGCAGGTTTAGAAAGCTGGCCAA`
Response: -0.13

Query: Endpoint output: PBM binding z-score of `TCTAGCAGGCCAGAAGGTCACTCAAGAGGTACGG` . Value?
Response: 2.17

Query: Recorded PBM binding z-score of `ATCGAAAGGTCGTGTGGTGAGTATACAGAAAGGC` , please.
Response: 4.22

Query: Report PBM binding z-score for `CCAGACAGGTTAAAGGTAACTCAGTCTGGTACGC` please.
Response: 1.84

Query: Requested field: PBM binding z-score. Item: `CCTCGAAGGACAGAAGGTCAGAGCTGTCCGCTTT`
Response: 1.56

----------
Assignment: determine reported PBM binding z-score for the given sequences.
- System: LXRa homodimer (NR concentration 270 nM)
- procedure details: PBM binding z-score (relative to random genomic background probes); higher = stronger binding; sequences stand for … in GC…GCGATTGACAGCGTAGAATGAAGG
Hey, just send me the number, nothing else.

Query: Query for LXRa homodimer (NR concentration 270 nM): what PBM binding z-score does the record show for `AGTCAAAGTTCACTAGGTAACGTATGATTCAGCT` ?
Response: 2.85

Query: API: value(readout=PBM binding z-score, system=LXRa homodimer (NR concentration 270 nM)) for record `ATCGAAAGGTCGACGAGGTGAGTCTACACCGTTT`
Response: -0.244

Query: Return PBM binding z-score measured with LXRa homodimer (NR concentration 270 nM) given this sequence: `CCTACTGGGCCAAAGTTCATTGATTCCAATGCTC`
Response: 4.36

Query: So what PBM binding z-score did `CCTTACGGGTGACTCCAGGTTATAGCATCGGAGT` get with LXRa homodimer (NR concentration 270 nM)?
Response: 0.839

Query: Record lookup: for LXRa homodimer (NR concentration 270 nM), what PBM binding z-score belongs to `CCTACTGGGACAAAGGTCATTGATTCCAATGCTC` ?
Response: 4.66

Query: Item `ATATGTAGGTTAAGGGTCATTAAGGTTGGTTCGC` with LXRa homodimer (NR concentration 270 nM) - PBM binding z-score?
Response: 2.72

Query: Give the reported PBM binding z-score for `ATCTGTAGGTAAGACTCAGTTCAGTGAAGAACGC` (system: LXRa homodimer (NR concentration 270 nM)).
Response: 0.296

Query: Return PBM binding z-score measured with LXRa homodimer (NR concentration 270 nM) given this sequence: `ATCTCTAAGTAAGACTCAGTTCAGTGAAGAACGC`
Response: 0.509

Query: Please tell me: PBM binding z-score of `CCGACTGGGTCAGAAAGGTTACCATACCATCCGG` , system LXRa homodimer (NR concentration 270 nM)?
Response: -0.0382

Query: PBM binding z-score of `AGAATGAGGTTATACGTAGATCAGCGAAGAAAGT` on LXRa homodimer (NR concentration 270 nM)?
Response: -0.0526

Query: Lookup: PBM binding z-score / LXRa homodimer (NR concentration 270 nM) / `ATCTCTAGGTAAAGATAGTGCAGTGAATGCAAAT`
Response: 0.00124

Query: Hello, I am looking for reported PBM binding z-score with LXRa homodimer (NR concentration 270 nM) for `CTGACTGGGGCAGAAAGGTTACCATACCATCCGG` . Could you help?
Response: 0.207

Query: Lab note: need PBM binding z-score for `CCAGACAGGTGAGAAGGTAACGCAGCCTCGATTA` on LXRa homodimer (NR concentration 270 nM), anyone have it?
Response: -0.18

Query: Missing value: PBM binding z-score, LXRa homodimer (NR concentration 270 nM), entry `ATCTAAAGGTCGACGAGGTGAGTATACACCGTTT` . Fill in?
Response: 0.832

Query: Value wanted: PBM binding z-score (LXRa homodimer (NR concentration 270 nM)) of entry `TCGAGTCGGTTACCAATGGGGCATTCAGCTTTCT`
Response: -0.421

Query: Look up PBM binding z-score with LXRa homodimer (NR concentration 270 nM) for this sequence: `GCATAGAGGTAATACAAGGTGAAAGTCCGATTGT`
Response: -0.00697

Query: Test system LXRa homodimer (NR concentration 270 nM); read-out PBM binding z-score; what value for `TCTATTAGTTGAAGGGCAACAGACGAGTCCGTTT` ?
Response: 0.367

Query: Under LXRa homodimer (NR concentration 270 nM): PBM binding z-score value of `TCTTGTAGATCAGAGGTTAAGAAAGCCGAAGCCT` ?
Response: -0.0177
